Biological target: AR / CBP ternary complex (Homo sapiens, UniProt P10275+Q92793)
Sequence (P10275 whole entry): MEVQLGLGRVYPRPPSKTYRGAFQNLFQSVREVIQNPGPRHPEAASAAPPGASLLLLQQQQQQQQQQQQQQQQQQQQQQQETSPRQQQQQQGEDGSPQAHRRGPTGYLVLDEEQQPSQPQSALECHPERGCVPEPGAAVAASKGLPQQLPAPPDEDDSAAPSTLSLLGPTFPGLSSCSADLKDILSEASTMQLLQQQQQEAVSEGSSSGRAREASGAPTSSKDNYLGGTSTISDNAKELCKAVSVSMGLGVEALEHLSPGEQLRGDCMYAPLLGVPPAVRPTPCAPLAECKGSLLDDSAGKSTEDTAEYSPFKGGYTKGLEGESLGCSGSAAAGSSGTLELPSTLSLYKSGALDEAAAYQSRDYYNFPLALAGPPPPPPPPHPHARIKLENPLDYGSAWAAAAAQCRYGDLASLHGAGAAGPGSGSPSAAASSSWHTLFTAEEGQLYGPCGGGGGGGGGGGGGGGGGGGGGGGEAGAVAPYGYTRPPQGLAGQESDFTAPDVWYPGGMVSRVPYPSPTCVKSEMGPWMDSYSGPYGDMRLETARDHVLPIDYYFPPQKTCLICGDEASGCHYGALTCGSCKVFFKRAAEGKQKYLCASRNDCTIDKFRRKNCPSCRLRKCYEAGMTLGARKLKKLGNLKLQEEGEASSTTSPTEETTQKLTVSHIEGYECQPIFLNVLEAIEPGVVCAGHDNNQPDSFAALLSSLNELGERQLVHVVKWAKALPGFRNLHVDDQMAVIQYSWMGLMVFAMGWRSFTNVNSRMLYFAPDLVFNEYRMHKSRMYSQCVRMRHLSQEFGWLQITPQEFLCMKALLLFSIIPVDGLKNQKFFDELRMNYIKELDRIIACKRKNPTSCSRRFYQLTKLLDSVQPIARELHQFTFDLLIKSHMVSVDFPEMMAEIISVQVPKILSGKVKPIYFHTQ
Sequence (Q92793 2-2442): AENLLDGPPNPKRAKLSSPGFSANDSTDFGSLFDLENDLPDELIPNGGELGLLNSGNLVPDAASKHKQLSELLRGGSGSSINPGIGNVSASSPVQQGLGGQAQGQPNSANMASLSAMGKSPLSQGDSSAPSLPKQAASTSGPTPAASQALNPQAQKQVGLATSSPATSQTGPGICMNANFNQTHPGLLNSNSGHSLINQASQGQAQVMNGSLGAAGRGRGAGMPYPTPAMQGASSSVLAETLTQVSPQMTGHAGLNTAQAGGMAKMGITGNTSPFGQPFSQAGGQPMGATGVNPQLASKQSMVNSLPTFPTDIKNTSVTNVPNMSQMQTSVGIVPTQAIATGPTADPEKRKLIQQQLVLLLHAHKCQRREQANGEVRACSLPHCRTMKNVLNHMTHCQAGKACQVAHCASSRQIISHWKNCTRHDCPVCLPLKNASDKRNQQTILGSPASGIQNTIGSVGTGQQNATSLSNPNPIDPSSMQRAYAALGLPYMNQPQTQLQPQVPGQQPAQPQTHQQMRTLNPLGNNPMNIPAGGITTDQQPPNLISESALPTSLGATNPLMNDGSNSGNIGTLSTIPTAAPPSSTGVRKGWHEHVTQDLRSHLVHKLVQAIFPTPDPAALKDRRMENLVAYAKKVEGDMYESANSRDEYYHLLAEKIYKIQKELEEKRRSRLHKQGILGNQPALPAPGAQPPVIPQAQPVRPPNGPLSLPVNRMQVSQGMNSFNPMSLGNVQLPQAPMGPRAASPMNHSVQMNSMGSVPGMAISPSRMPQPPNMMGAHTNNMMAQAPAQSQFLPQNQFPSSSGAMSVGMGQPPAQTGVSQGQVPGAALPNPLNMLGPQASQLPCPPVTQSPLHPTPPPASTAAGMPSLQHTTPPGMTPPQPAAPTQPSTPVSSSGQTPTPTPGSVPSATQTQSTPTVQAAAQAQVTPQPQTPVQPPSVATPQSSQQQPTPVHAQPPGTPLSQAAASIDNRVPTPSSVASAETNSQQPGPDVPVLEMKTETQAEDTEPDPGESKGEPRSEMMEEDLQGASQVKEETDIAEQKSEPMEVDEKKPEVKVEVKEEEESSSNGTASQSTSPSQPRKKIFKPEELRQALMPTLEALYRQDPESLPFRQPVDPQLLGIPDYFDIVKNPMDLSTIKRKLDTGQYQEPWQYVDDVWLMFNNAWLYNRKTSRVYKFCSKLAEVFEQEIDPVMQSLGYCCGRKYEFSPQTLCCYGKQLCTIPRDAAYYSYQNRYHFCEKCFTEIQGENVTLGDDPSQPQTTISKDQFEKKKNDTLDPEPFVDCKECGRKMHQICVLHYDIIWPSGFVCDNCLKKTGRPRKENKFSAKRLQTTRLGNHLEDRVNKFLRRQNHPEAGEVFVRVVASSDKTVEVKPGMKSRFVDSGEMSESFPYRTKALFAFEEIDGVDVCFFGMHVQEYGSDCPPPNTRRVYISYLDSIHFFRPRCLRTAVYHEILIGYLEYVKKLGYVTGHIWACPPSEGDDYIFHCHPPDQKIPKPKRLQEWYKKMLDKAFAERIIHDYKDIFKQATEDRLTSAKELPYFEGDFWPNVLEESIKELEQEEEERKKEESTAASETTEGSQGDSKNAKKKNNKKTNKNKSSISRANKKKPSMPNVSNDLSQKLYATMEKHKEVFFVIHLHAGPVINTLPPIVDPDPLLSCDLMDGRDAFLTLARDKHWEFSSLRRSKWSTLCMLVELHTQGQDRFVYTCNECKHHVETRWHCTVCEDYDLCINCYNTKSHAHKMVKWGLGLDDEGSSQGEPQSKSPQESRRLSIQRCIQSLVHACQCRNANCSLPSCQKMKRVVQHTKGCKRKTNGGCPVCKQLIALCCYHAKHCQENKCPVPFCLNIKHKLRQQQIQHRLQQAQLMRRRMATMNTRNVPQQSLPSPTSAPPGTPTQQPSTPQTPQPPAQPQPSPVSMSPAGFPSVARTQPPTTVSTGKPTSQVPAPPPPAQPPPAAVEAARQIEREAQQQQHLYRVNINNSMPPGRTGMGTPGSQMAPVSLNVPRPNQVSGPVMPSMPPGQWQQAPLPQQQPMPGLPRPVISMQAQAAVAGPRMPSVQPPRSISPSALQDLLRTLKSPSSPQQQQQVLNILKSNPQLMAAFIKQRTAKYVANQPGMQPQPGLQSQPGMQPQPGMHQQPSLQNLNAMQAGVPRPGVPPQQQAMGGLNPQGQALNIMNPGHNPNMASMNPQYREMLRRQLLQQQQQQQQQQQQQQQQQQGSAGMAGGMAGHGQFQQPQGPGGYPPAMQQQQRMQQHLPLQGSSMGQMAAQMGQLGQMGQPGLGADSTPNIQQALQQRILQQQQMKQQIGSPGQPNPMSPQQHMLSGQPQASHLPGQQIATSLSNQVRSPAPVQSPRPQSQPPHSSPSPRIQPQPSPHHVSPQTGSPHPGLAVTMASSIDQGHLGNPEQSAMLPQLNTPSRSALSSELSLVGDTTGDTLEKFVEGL
Experiment: Ternary complex formation assay (sandwich ELISA, AR capture, CBP antibody detection) in VCaP cell lysates
Assay type: cell-based
Settings: treated 1.5 hours, rabbit CBP or p300 antibody detection, average, read-out: Average Ternary Complex
// reported EC50 for each item listed
Measured Property: EC50

>>> result("CC(=O)N1CCc2c(c(N3CCCc4cc(-c5cnn(C)c5)c(C(F)F)cc43)nn2C2CCN(C[C@H]3[C@H](C)CN(c4ccc(C(=O)N[C@H]5CC[C@H](Oc6ccc(C#N)c(C)c6C)CC5)nn4)C[C@@H]3C)CC2)C1")
"< 1 nM"
>>> result("COC(=O)N1c2ccc3c(nc(Cc4ccccc4)n3[C@@H]3CCC[C@H](OCC4CCN(c5ccc(C(=O)N[C@H]6CC[C@H](Oc7ccc(C#N)c(Cl)c7)CC6)nn5)CC4)C3)c2CC[C@@H]1C")
"1 to 10 nM"
>>> result("CC(=O)N1CCc2c(c(N3CCCc4cc(-c5cnn(C)c5)c(C(F)F)cc43)nn2[C@H]2CC[C@H](CN3CCN(c4ccc(C(=O)N[C@H]5CC[C@H](Oc6ccc(C#N)c(Cl)c6)CC5)nn4)CC3)CC2)C1")
"< 1 nM"
>>> result("CC(=O)N1CCc2c(c(N3CCCc4cc(-c5cnn(C)c5)c(C(F)F)cc43)nn2C2CC3(C2)CC2(CCN(c4ccc(C(=O)N[C@H]5CC[C@H](Oc6ccc(C#N)c(Cl)c6)CC5)nn4)CC2)C3)C1")
"< 1 nM"

----------
Test system: VCaP cells
Assay: VCaP growth inhibition assay (CTG)
Format: cell-based
Conditions: Homo sapiens, 216 h, 30 pM R1881, 9 days
pIC50: −log10 of the molar value.
// reported pIC50 for each item listed
Measured Property: pIC50

>>> result("CC(=O)N1CCc2c(c(N3CCCc4cc(-c5cnn(C)c5)c(C(F)F)cc43)nn2[C@@H]2CCN(CC3CCN(c4ccc(C(=O)N[C@H]5CC[C@H](Oc6ccc(C#N)c(Cl)c6)CC5)nn4)CC3)C[C@H]2F)C1")
"≥ 10.00"
>>> result("CC(=O)N1CCc2c(c(-c3cccc4cc(-c5cnn(CC6CC7(C6)CN(c6ccc(C(=O)N[C@H]8CC[C@H](Oc9ccc(C#N)c(Cl)c9)CC8)nn6)C7)c5)ncc34)nn2C)C1")
"9.00 to 10.00"
>>> result("CC(=O)N1CCc2c(c(-c3cccc4cc(-c5cnn(CCC6CCN(c7ccc(C(=O)N[C@H]8CC[C@H](Oc9ccc(C#N)c(Cl)c9)CC8)nn7)CC6)c5)ncc34)nn2C)C1")
"≥ 10.00"
>>> result("CC(=O)N1CCc2c(c(N3CCCc4cc(-c5cnn(C)c5)c(C(F)F)cc43)nn2C2CCN(C3CC4(CCN(c5ccc(C(=O)N[C@H]6CC[C@H](Oc7ccc(C#N)c(Cl)c7)CC6)nn5)CC4)C3)CC2)C1")
"9.00 to 10.00"
>>> result("CC(=O)N1CCc2c(c(N3CCCc4cc(-c5cnn(C)c5)c(C(F)F)cc43)nn2[C@H]2CC[C@@H](CN3CCN(c4ccc(C(=O)N[C@H]5CC[C@H](Oc6ccc(C#N)c(Cl)c6)CC5)nn4)CC3)CC2)C1")
"≥ 10.00"
>>> result("CC(=O)N1CCc2c(c(N3CCCc4cc(-c5cnn(C)c5)c(C(F)F)cc43)nn2[C@H]2CC[C@H](N3CCN(c4ccc(C(=O)N[C@H]5CC[C@H](Oc6ccc(C#N)c(Cl)c6)CC5)nn4)CC3)CC2)C1")
"≥ 10.00"
>>> result("CC(=O)N1CCc2c(c(N3CCCc4cc(-c5cnn(C)c5)c(C(F)F)cc43)nn2C2CCN(CC3CC4CCC(C3)N4c3ccc(C(=O)N[C@H]4CC[C@H](Oc5ccc(C#N)c(Cl)c5)CC4)nn3)CC2)C1 (stereo partly drawn)")
"≥ 10.00"
>>> result("CC(=O)N1CCc2c(c(-c3cccc4ccncc34)nn2C2CCN(CC3CCN(c4ccc(C(=O)N[C@H]5CC[C@H](Oc6ccc(C#N)c(Cl)c6)CC5)nn4)CC3)CC2)C1")
"9.00 to 10.00"
>>> result("CC(=O)N1CCc2c(c(-c3cccc4cc(-c5ccc(N6CCC7(CC6)CCN(c6ccc(C(=O)N[C@H]8CC[C@H](Oc9ccc(C#N)c(Cl)c9)CC8)nn6)CC7)nc5)ncc34)nn2C2CCOCC2)C1")
"9.00 to 10.00"
>>> result("CC(=O)N1CCc2c(c(N3CCCc4cc(-c5cscn5)c(C(F)F)cc43)nn2C2CCN(CC3CCN(c4ccc(C(=O)N[C@H]5CC[C@H](Oc6ccc(C#N)c(Cl)c6)CC5)nn4)CC3)CC2)C1")
"≥ 10.00"
>>> result("Cn1c(=O)n(C)c2cc(-c3cccc4cc(-c5ccc(CCC6CCN(c7ccc(C(=O)N[C@H]8CC[C@H](Oc9ccc(C#N)c(Cl)c9)CC8)nn7)CC6)nc5)ncc34)ccc21")
"< 7.00"
>>> result("CC(=O)N1CCc2c(c(-c3cccc4cc(-c5ccc(CC6CCN(c7ccc(C(=O)N[C@H]8CC[C@H](Oc9ccc(C#N)c(Cl)c9)CC8)nn7)CC6)nc5)ncc34)nn2C)C1")
"≥ 10.00"
>>> result("CC(=O)N1CCc2c(c(N3CCCc4cc(-c5cnn(C)c5)c(C(F)F)cc43)nn2[C@H]2CC[C@@H](N(C)C3CCN(c4ccc(C(=O)N[C@H]5CC[C@H](Oc6ccc(C#N)c(Cl)c6)CC5)nn4)CC3)CC2)C1")
"≥ 10.00"
>>> result("CC(=O)N1CCc2c(c(N3CCCc4cc(-c5cnn(C)c5)c(C(F)F)cc43)nn2C2CC3(C2)CN(CC2CC4(C2)CN(c2ccc(C(=O)N[C@H]5CC[C@H](Oc6ccc(C#N)c(Cl)c6)CC5)nn2)C4)C3)C1 (stereo partly drawn)")
"≥ 10.00"
>>> result("COC(=O)N1c2ccc3c(nc(Cc4ccccc4)n3[C@@H]3CCC[C@H](OC4CCN(c5ccc(C(=O)N[C@H]6CC[C@H](Oc7ccc(C#N)c(Cl)c7)CC6)nn5)CC4)C3)c2CC[C@@H]1C")
"9.00 to 10.00"
>>> result("CN1C(=O)CCc2cc(-c3cccc4cc(-c5ccc(CCC6CCN(c7ccc(C(=O)N[C@H]8CC[C@H](Oc9ccc(C#N)c(Cl)c9)CC8)nn7)CC6)nc5)ncc34)ccc21")
"< 7.00"
>>> result("CC(=O)N1CCc2c(c(N3CCCc4cc(-c5cnn(C)c5)c(C(F)F)cc43)nn2C2CCN(C3CC4(CC(Oc5ccc(C(=O)N[C@H]6CC[C@H](Oc7ccc(C#N)c(Cl)c7)CC6)nn5)C4)C3)CC2)C1 (stereo partly drawn)")
"≥ 10.00"
>>> result("COC(=O)N1c2ccc3c(nc(Cc4ccccc4)n3[C@H]3CCC[C@H](CN4CCN(c5ccc(C(=O)N[C@H]6CC[C@H](Oc7ccc(C#N)c(Cl)c7)CC6)nn5)CC4)C3)c2CC[C@@H]1C")
"7.00 to 9.00"

----------
Tested on: VCaP cells
Experiment: VCaP growth inhibition assay (CTG)
Assay type: cell-based
Conditions: Homo sapiens, 216 h, 30 pM R1881, 9 days
// reported IC50 for each item listed
Measured Property: IC50

>>> result("CC(=O)N1CCc2c(c(N3CCCc4cc(-c5ccc(CCN6CCN(c7ccc(C(=O)N[C@H]8CC[C@H](Oc9ccc(C#N)c(Cl)c9)CC8)nn7)CC6)cc5)ncc43)nn2C2CCOCC2)C1")
"0.1 to 1 nM"
>>> result("CC(=O)N1CCc2c(c(N3CCCc4cc(-c5cnn(C)c5)c(C(F)F)cc43)nn2C2CCC3(CC2)CCN(c2ccc(C(=O)N[C@H]4CC[C@H](Oc5ccc(C#N)c(Cl)c5)CC4)nn2)CC3)C1")
"0.1 to 1 nM"
>>> result("CC(=O)N1CCc2c(c(N3CCCc4cc(-c5ncco5)c(C(F)F)cc43)nn2C2CCN(CC3CCN(c4ccc(C(=O)N[C@H]5CC[C@H](Oc6ccc(C#N)c(Cl)c6)CC5)nn4)CC3)CC2)C1")
"0.1 to 1 nM"
>>> result("Cn1cc(-c2cc3c(cc2C(F)F)N(c2cc(C4CCN(CC5CCN(c6ccc(C(=O)N[C@H]7CC[C@H](Oc8ccc(C#N)c(Cl)c8)CC7)nn6)CC5)CC4)c4c(c2)n(C)c(=O)n4C)CCC3)cn1")
"0.1 to 1 nM"
>>> result("CC(=O)N1CCc2c(c(-c3cccc4cc(-c5cnn(CC6CCN(c7ccc(C(=O)N[C@H]8CC[C@H](Oc9ccc(C#N)c(Cl)c9)CC8)nn7)CC6)c5)ncc34)nn2C2CCOCC2)C1")
"≤ 0.1 nM"
>>> result("CC(=O)N1CCc2c(c(-c3cccc4nc(-c5ccc(CCC6CCN(c7ccc(C(=O)N[C@H]8CC[C@H](Oc9ccc(C#N)c(Cl)c9)CC8)nn7)CC6)nc5)ncc34)nn2C2CCOCC2)C1")
"≤ 0.1 nM"
>>> result("CC(=O)N1CCc2c(c(N3CCCc4cc(-c5cnn(C)c5)c(C(F)F)cc43)nn2C2CCN(C3(C)CCN(c4ccc(C(=O)N[C@H]5CC[C@H](Oc6ccc(C#N)c(Cl)c6)CC5)nn4)CC3)CC2)C1")
"≤ 0.1 nM"
>>> result("CC(=O)N1CCc2c(c(N3CCCc4cc(-c5cnn(C)c5)c(C(F)F)cc43)nn2C2CCN(C3CCN(c4ccc(C(=O)N[C@H]5CC[C@H](Oc6ccc(C#N)c(Cl)c6)CC5)nn4)CC3(F)F)CC2)C1 (stereo partly shown)")
"≤ 0.1 nM"
>>> result("CC(=O)N1CCc2c(c(-c3cccc4cc(-c5cnn(CCC6CCN(c7ccc(C(=O)N[C@H]8CC[C@H](Oc9ccc(C#N)c(Cl)c9)CC8)nn7)CC6)c5)ncc34)nn2C2COC2)C1")
"0.1 to 1 nM"
>>> result("CC(=O)N1CCc2c(c(-c3cccc4cc(C5CC5)ncc34)nn2C2CCN(CC3CCN(c4ccc(C(=O)N[C@H]5CC[C@H](Oc6ccc(C#N)c(Cl)c6)CC5)nn4)CC3)CC2)C1")
"0.1 to 1 nM"
